Test system: Proteinase K
Assay: Stability of compound assessed as Proteinase K (unknown origin) mediated compound degradation by measuring half-life by HPLC analysis
Format: ADME
Square brackets hold non-standard residues; d marks the D form. Peptide text beside a SMILES is read from it. * marks the point of attachment. ξ: configuration not given here. C20 diacid = O=C(O)CCCCCCCCCCCCCCCCCCC(=O)*; C18 diacid = O=C(O)CCCCCCCCCCCCCCCCC(=O)*; Palmitoyl = CCCCCCCCCCCCCCCC(=O)*; ξR = N=C(N)NCCCC(N)C(=O)O
As shown below, each of these molecules has a reported half-life value.

Example entries and their recorded answers appear below.
- molecule: "CCCCCCCCCCCCCCCC(=O)N[C@H](C(=O)N[C@@H](C)C(=O)N[C@@H](CCC(N)=O)C(=O)N[C@@H](CCC(=O)O)C(=O)N[C@@H](CC(C)C)C(=O)N[C@@H](CCCNC(=N)N)C(=O)N[C@@H](CCCNC(=N)N)C(=O)N[C@H](C(=O)NCC(=O)N[C@@H](CC(=O)O)C(=O)N[C@@H](CCC(=O)O)C(=O)N[C@@H](Cc1ccccc1)C(=O)O)[C@@H](C)CC)[C@@H](C)CC (Palmitoyl-IAQELRRIGDEF-OH)"
  measured_value: "169 min"
- molecule: "CC[C@H](C)[C@H](NC(=O)CCCCCCCCCCCCCCCCC(=O)O)C(=O)N[C@@H](C)C(=O)N[C@@H](CCC(N)=O)C(=O)N[C@@H](CCC(=O)O)C(=O)N[C@@H](CC(C)C)C(=O)N[C@@H](CCCNC(=N)N)C(=O)NC(CCCNC(=N)N)C(=O)N[C@H](C(=O)NCC(=O)N[C@@H](CC(=O)O)C(=O)N[C@@H](CCC(=O)O)C(=O)N[C@@H](Cc1ccccc1)C(=O)O)[C@@H](C)CC (stereo partly drawn) ({C18 diacid}-IAQELR[ξR]IGDEF-OH)"
  measured_value: "7.8 min"

Now look at this one.
Need half-life, item CC[C@H](C)[C@H](NC(=O)CCCCCCCCCCCCCCCCCCC(=O)O)C(=O)N[C@@H](C)C(=O)N[C@@H](CCC(N)=O)C(=O)N[C@@H](CCC(=O)O)C(=O)N[C@@H](CC(C)C)C(=O)N[C@@H](CCCNC(=N)N)C(=O)NC(CCCNC(=N)N)C(=O)N[C@H](C(=O)NCC(=O)N[C@@H](CC(=O)O)C(=O)N[C@@H](CCC(=O)O)C(=O)N[C@@H](Cc1ccccc1)C(=O)O)[C@@H](C)CC (stereo partly drawn) ({C20 diacid}-IAQELR[ξR]IGDEF-OH)
54 min
